Measured Kd values are reported for all entries that follow.
Target: T1, ROR1 antigen (UniProt Q01973 30-403, limits assumed)
T1 construct: construct not described
T1 sequence (Q01973 30-403 limits assumed): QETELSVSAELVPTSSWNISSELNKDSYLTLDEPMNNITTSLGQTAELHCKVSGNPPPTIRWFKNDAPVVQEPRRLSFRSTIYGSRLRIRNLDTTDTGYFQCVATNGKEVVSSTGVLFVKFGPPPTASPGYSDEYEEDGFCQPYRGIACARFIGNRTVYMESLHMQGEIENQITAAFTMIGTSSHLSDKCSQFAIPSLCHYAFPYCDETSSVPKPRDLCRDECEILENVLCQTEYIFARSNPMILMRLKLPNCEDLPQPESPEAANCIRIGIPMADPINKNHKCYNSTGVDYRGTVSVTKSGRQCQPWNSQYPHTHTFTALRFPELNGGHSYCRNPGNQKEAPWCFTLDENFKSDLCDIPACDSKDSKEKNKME
Test: BLI (Octet RED96e), antibody on sensor, ROR1 antigen from 100 nM in 2-fold dilutions
Please state the figure in nM; there is no need to write the unit.

Examples with answers:
binder	Kd (nM)
murine antibody 17-F12-G8-A6 (antibody, V domains shown) VH: EVTLKESGPGILQPSQTLSLTCSFSGFSLSTSGMGVAWIRQPSGKGLEWLAHIWWDDDKRYNPALKSRLTISKDTSSNQVFLKIASVDTADTATYYCARPQFITTVVAFYWYFDVWGAGTTVTVSS VL: DILLTQSPASLSVSMGETVTITCRASENIYSNLAWYQQKQGKSPQLLVYAATNLADGVPSRFSGSGSGTQYSLKINSLQSEDFGSYYCQHFWGTPWTFGGGTKLEIK	14.8
humanized antibody hu17-H4L1 (antibody, human IgG1, kappa, L234A L235A, V domains shown) VH: QVTLKESGPTLVKPTQTLTLTCTFSGFSLSTSGMGVAWIRQPPGKALEWLAHIWWDDDKRYGPSLKSRLTITKDTSKNQVVLTMTNMDPVDTATYYCARPQFITTVVAFYWYFDVWGQGTTVTVSS VL: DILLTQSPSSLSVSVGDRVTITCRASENIYSNLAWYQQKPGKAPKLLVYAATNLADGVPSRFSGSGSGTQYTLTISSLQPEDFATYYCQHFWGTPWTFGGGTKLEIKR	20
humanized antibody hu17-H3L1 (antibody, human IgG1, kappa, L234A L235A, V domains shown) VH: QVTLKESGPTLVKPTQTLTLTCSFSGFSLSTSGMGVAWIRQPPGKALEWLAHIWWDDDKRYNPSLKSRLTITKDTSKNQVVLTMTNMDPVDTATYYCARPQFITTVVAFYWYFDVWGQGTTVTVSS VL: DILLTQSPSSLSVSVGDRVTITCRASENIYSNLAWYQQKPGKAPKLLVYAATNLADGVPSRFSGSGSGTQYTLTISSLQPEDFATYYCQHFWGTPWTFGGGTKLEIKR	32.4

Exam item: What value of measured Kd is listed for humanized antibody hu17-H2L1 (antibody, human IgG1, kappa, L234A L235A, V domains shown) VH: EVTLKESGPTLVKPTQTLTLTCSFSGFSLSTSGMGVAWIRQPPGKALEWLAHIWWDDDKRYNPALKSRLTITKDTSKNQVVLTITNVDPVDTATYYCARPQFITTVVAFYWYFDVWGQGTTVTVSS VL: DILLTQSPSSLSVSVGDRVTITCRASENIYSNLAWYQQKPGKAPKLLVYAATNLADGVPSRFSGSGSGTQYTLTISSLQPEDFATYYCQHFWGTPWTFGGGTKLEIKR ?
Marked response: 22.7
